Would you mind telling me the reported pEC50 of each entry?
molecular target: Recombinant human TLR7 (Homo sapiens, UniProt Q9NYK1); construct: TLR7 in pUNO vector; assay: Human TLR7 Assay (SEAP reporter in HEK293 cells); conditions: HEK293 cell line stably expressing human TLR7 and pNiFty2-SEAP reporter; SEAP induction after overnight incubation at 37° C., 0.1% (v/v) DMSO
Sequence (Q9NYK1 27-1049): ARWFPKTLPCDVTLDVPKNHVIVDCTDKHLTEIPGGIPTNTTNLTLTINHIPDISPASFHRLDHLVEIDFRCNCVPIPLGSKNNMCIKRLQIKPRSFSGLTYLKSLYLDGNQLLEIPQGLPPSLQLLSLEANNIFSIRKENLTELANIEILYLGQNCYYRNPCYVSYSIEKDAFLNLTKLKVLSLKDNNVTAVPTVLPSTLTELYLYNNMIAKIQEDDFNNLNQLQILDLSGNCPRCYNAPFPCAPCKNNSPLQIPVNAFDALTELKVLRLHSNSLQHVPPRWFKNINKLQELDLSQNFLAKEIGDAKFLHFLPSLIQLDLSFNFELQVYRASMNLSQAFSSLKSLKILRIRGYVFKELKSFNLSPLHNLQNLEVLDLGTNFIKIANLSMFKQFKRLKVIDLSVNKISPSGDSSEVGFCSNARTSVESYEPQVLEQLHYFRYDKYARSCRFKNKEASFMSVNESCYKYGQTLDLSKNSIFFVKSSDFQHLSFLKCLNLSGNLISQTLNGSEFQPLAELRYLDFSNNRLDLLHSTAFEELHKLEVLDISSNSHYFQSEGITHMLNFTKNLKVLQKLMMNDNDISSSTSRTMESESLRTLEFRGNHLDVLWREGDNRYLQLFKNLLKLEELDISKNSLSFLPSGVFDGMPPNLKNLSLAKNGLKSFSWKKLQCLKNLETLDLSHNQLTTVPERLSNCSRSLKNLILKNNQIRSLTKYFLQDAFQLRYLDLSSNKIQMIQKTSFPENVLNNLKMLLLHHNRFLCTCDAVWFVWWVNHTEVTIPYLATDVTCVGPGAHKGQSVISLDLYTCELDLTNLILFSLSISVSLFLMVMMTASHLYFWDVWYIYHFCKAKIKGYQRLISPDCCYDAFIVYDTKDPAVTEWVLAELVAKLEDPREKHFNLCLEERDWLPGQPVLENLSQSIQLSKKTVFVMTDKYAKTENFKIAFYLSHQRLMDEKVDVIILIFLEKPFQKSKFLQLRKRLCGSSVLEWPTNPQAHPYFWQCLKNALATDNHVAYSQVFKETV
Keep it numeric: pEC50 is minus log10 of the concentration in mol/L.

Data request: Return pEC50 (reported value) for this compound: "CCCCOc1nc(N)c2[nH]c(=O)n(CCCN3CCC[C@H]3C(=O)N(C)C)c2n1"
Data returned: 5.50

Data request: Return pEC50 (reported value) for this compound: "CCCCOc1nc(N)c2[nH]c(=O)n(CCCN3CCC[C@H]3COC)c2n1"
Data returned: 5.60

Data request: Return pEC50 (reported value) for this compound: "CCCCOc1nc(N)c2[nH]c(=O)n(CCCN(C)CC(=O)N(C)C)c2n1"
Data returned: 6.60

Data request: Return pEC50 (reported value) for this compound: "CCCCOc1nc(N)c2[nH]c(=O)n(CCCN3CCCC3)c2n1"
Data returned: 6.40
